src = patent US7217730B2

STUDY_SYSTEM: NS5B from the BK strain (genotype 1b) (Hepatitis C virus genotype 1b, UniProt P26663)
Construct: NS5B from the BK strain (genotype 1b) is expressed in E. coli as a protein in which the 21 C-terminal amino acids are replaced; made in house; host or cells: E. coli
Sequence (P26663 2420-2989): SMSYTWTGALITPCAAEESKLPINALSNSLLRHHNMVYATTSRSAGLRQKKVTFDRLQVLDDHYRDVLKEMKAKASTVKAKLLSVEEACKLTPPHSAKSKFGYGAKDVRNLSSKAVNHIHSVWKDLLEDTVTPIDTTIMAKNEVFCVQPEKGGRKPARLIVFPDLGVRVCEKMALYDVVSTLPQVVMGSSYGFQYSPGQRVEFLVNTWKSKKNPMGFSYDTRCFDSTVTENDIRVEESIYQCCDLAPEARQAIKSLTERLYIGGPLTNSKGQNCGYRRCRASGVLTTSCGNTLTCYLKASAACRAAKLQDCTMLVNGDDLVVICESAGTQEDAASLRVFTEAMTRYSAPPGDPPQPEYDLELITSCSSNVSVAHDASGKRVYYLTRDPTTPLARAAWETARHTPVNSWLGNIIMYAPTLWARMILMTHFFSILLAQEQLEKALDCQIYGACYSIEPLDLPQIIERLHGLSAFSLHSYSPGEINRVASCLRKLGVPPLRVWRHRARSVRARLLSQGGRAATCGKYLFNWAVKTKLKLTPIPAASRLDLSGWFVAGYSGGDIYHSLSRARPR
EXPERIMENT_NOTES: Hepatitis C polymerase inhibition, NS5B BK strain, 33P-GTP filter assay
Assay type: biochemical
ASSAY_CONDITIONS: Table 1A; 20 μM compound; read-out: HCV pol % inh at 20 μM
If the reported inhibition at 20 µM equals or exceeds 40%, assign Fulfilled. If not, assign Not fulfilled.

Examples from the recorded data:
COMPOUND | STUDY_SYSTEM | CATEGORY_LABEL
O=C(O)CC1(CC(=O)O)OCCc2c1[nH]c1cccc(Cl)c21 | NS5B from the BK strain (genotype 1b) (Hepatitis C virus genotype 1b, UniProt P26663) | Fulfilled
Cc1cc(F)c(Br)c2c3c([nH]c12)C(CC(=O)O)(c1ccc(C(=O)O)cc1)OCC3 (stereo not shown) | NS5B from the BK strain (genotype 1b) (Hepatitis C virus genotype 1b, UniProt P26663) | Fulfilled
CCC1(CC(=O)O)OCCc2c1[nH]c1c(F)cc(F)c(C#N)c21 (stereo not shown) | NS5B from the BK strain (genotype 1b) (Hepatitis C virus genotype 1b, UniProt P26663) | Fulfilled
CC1(CC(=O)O)OCCc2c1[nH]c1ccc(Cl)c(Cl)c21 (stereo not shown) | NS5B from the BK strain (genotype 1b) (Hepatitis C virus genotype 1b, UniProt P26663) | Fulfilled
C/C=C/CCC1(CC(=O)O)OCCc2c1[nH]c1cccc(Cl)c21 (stereo not shown) | NS5B from the BK strain (genotype 1b) (Hepatitis C virus genotype 1b, UniProt P26663) | Not fulfilled
CCCC1(CC(=O)O)OCCc2c1[nH]c1c(-c3cccc(Br)c3)cccc21 (stereo not shown) | NS5B from the BK strain (genotype 1b) (Hepatitis C virus genotype 1b, UniProt P26663) | Not fulfilled

Decide: inhibition at 20 µM of COc1cc(C2(CC(=O)O)OCCc3c2[nH]c2cccc(Br)c32)cc(OC)c1OC (stereo not shown) >= 40%?
Not fulfilled

Decide: inhibition at 20 µM of Cc1cc(F)c2[nH]c3c(c2c1Br)CCOC3(CC(=O)O)C(C)C (stereo not shown) >= 40%?
Fulfilled

---

// reported IC50 for each item listed
STUDY_SYSTEM: BB7 (RNA-dependent RNA polymerase hepatitis C virus protein sequence derived from HCV replicon) (Hepatitis C virus genotype 1b)
Sequence (Q9WMX2 2420-3010): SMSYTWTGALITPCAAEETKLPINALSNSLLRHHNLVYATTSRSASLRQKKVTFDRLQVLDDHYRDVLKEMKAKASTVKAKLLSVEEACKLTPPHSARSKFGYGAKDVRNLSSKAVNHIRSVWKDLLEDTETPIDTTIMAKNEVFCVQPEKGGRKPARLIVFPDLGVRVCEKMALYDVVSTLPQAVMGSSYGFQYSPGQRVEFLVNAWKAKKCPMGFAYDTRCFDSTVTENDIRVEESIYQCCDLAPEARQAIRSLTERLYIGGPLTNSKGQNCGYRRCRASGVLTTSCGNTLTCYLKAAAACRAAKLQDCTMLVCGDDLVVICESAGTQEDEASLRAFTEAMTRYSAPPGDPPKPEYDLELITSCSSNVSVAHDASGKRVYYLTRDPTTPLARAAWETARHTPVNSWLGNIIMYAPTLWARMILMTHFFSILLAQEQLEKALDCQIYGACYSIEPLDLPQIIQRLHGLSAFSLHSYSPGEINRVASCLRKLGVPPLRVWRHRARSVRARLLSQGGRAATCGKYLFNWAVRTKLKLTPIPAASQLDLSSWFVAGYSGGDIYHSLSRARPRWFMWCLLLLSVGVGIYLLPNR

These solved cases illustrate the format of a correct answer.
COMPOUND | IC50
CCCC1(C(=O)O)OCCc2c1[nH]c1c(CC)ccc(C#N)c21 (stereo not drawn) | > 28 µM
Cc1ccc(C#N)c2c3c([nH]c12)[C@](CC(=O)O)(C1CCC1)OCC3 | > 30 µM

# IC50 of COCC1(CC(=O)O)OCCc2c1[nH]c1c(Cl)ccc(Cl)c21 (stereo not drawn) = > 30 µM

---

STUDY_SYSTEM: NS5B from the BK strain (genotype 1b) (Hepatitis C virus genotype 1b, UniProt P26663)
Construct: NS5B from the BK strain (genotype 1b) is expressed in E. coli as a protein in which the 21 C-terminal amino acids are replaced; made in house; host or cells: E. coli
EXPERIMENT_NOTES: Hepatitis C polymerase inhibition, NS5B BK strain, 33P-GTP filter assay
Format: biochemical
ASSAY_CONDITIONS: Table 1B; NS5B BK strain; read-out: BK IC50
// reported IC50 for each item listed
State just the number; it will be interpreted in µM.

MOLECULE | STUDY_SYSTEM | UNIT_SYMBOL | VALUE_MEASURED
CSCC1(CC(=O)O)OCCc2c1[nH]c1c(C)ccc(C#N)c21 (stereo not drawn) | NS5B from the BK strain (genotype 1b) (Hepatitis C virus genotype 1b, UniProt P26663) | µM | 13
CCCCC1(CC(=O)O)OCCc2c1[nH]c1c(CC)ccc(C#N)c21 (stereo not drawn) | NS5B from the BK strain (genotype 1b) (Hepatitis C virus genotype 1b, UniProt P26663) | µM | 7.2

Please find the next molecule below.
# IC50 of O=C(O)CC1(C2CCC2)OCCc2c1[nH]c1c(F)ccc(C(F)(F)F)c21 (stereo not drawn) = 9.4

---

STUDY_SYSTEM: NS5B from the BK strain (genotype 1b) (Hepatitis C virus genotype 1b)
Construct: NS5B from the BK strain (genotype 1b) is expressed in E. coli as a protein in which the 21 C-terminal amino acids are replaced; made in house; host or cells: E. coli
EXPERIMENT_NOTES: Hepatitis C polymerase inhibition, NS5B BK strain, 33P-GTP filter assay
Format: biochemical
ASSAY_CONDITIONS: Table 1A; 20 μM compound; read-out: HCV pol % inh at 20 μM
REPORTED_PROPERTY: inhibition at 20 µM

COMPOUND | STUDY_SYSTEM | inhibition at 20 µM
O=C(O)CC1(c2ccccc2F)OCCc2c1[nH]c1cccc(Br)c21 (stereo not shown) | NS5B from the BK strain (genotype 1b) (Hepatitis C virus genotype 1b) | < 5%
CCCC1(CC(=O)O)OCCc2c1[nH]c1c(F)ccc(-c3ccc(OC)cc3)c21 (stereo not shown) | NS5B from the BK strain (genotype 1b) (Hepatitis C virus genotype 1b) | < 11%
O=C(O)CC1(c2cccc([N+](=O)[O-])c2)OCCc2c1[nH]c1cccc(Br)c21 (stereo not shown) | NS5B from the BK strain (genotype 1b) (Hepatitis C virus genotype 1b) | < 5%

Please find the next compound below.
Response field inhibition at 20 µM (NS5B from the BK strain (genotype 1b) (Hepatitis C virus genotype 1b)) for item O=C(O)CC1(c2ccccc2)OCCc2c1[nH]c1cccc(Br)c21 (stereo not shown) : < 5%

---

// reported inhibition at 20 µM for each item listed
STUDY_SYSTEM: NS5B from the BK strain (genotype 1b) (Hepatitis C virus genotype 1b)
Construct: NS5B from the BK strain (genotype 1b) is expressed in E. coli as a protein in which the 21 C-terminal amino acids are replaced; made in house; host or cells: E. coli
EXPERIMENT_NOTES: Hepatitis C polymerase inhibition, NS5B BK strain, 33P-GTP filter assay
Type: biochemical
ASSAY_CONDITIONS: Table 1A; 20 μM compound; read-out: HCV pol % inh at 20 μM

These solved cases illustrate the format of a correct answer.
COMPOUND | inhibition at 20 µM
CC(C)C1(CC(=O)O)OCCc2c1[nH]c1c(Br)cccc21 (centres unmarked) | 41%
CCCCC1(CC(=O)O)OCCc2c1[nH]c1c(Cl)cc(Cl)cc21 (centres unmarked) | 60%

# inhibition at 20 µM of CCCCC1(CC(=O)O)OCCc2c1[nH]c1c(C(F)(F)F)cccc21 (centres unmarked) = 31%

# inhibition at 20 µM of CC1(CC(=O)O)OCCc2c1[nH]c1c(C(F)(F)F)cccc21 (centres unmarked) = 40%

# inhibition at 20 µM of CCCC1(CC(=O)O)OCCc2c1[nH]c1cccc(-c3cccs3)c21 (centres unmarked) = 28%

# inhibition at 20 µM of C/C=C/CCC1(CC(=O)O)OCCc2c1[nH]c1c(F)cc(C)c(C#N)c21 (centres unmarked) = 37%

# inhibition at 20 µM of CCCCC1(CC(=O)O)OCCc2c1[nH]c1c(F)cc(C)c(Br)c21 (centres unmarked) = 80%

# inhibition at 20 µM of CCCCC1(CC(=O)O)OCCc2c1[nH]c1c(F)ccc(F)c21 (centres unmarked) = 35%

# inhibition at 20 µM of O=C(O)CC1(c2ccccc2)OCCc2c1[nH]c1c(Br)cccc21 (centres unmarked) = 20%

---

STUDY_SYSTEM: NS5B from the BK strain (genotype 1b) (Hepatitis C virus genotype 1b, UniProt P26663)
Construct: NS5B from the BK strain (genotype 1b) is expressed in E. coli as a protein in which the 21 C-terminal amino acids are replaced; made in house; host or cells: E. coli
EXPERIMENT_NOTES: Hepatitis C polymerase inhibition, NS5B BK strain, 33P-GTP filter assay
Format: biochemical
ASSAY_CONDITIONS: Table 1A; 20 μM compound; read-out: HCV pol % inh at 20 μM
// reported inhibition at 20 µM for each item listed
State just the number; it will be interpreted in %.

MOLECULE | VALUE_MEASURED
CCCC1(CC(=O)O)OCCc2c1[nH]c1c(-c3ccc(Cl)cc3Cl)cccc21 (centres unmarked) | 64

# inhibition at 20 µM of CCCC1(CC(=O)O)OCCc2c1[nH]c1c(Cl)cc(C)c(Cl)c21 (centres unmarked) = 86

# inhibition at 20 µM of CC(C)C1(CC(=O)O)OCCc2c1[nH]c1c(C(F)(F)F)cccc21 (centres unmarked) = 10

# inhibition at 20 µM of C/C=C/CCC1(CC(=O)O)OCCc2c1[nH]c1c(C(F)(F)F)cccc21 (centres unmarked) = 33

# inhibition at 20 µM of Cc1cc(F)c2[nH]c3c(c2c1Br)CCOC3(CC(=O)O)c1ccc(C(=O)O)cc1 (centres unmarked) = 82
